Some compounds, each annotated with its measured IC50.
Test system: HeLa
protocol_description: Cytotoxicity against human HeLa cells assessed as reduction in cell viability after 24 hrs by MTT assay
Format: functional, cell-based

smi: Cc1sc2cc1C1=C(CCC1)c1cc(sc1C)C(=O)[C@H]1CCCN1C(=O)[C@H](CC(C)C)NC(=O)[C@H](CCCCN)NC(=O)[C@H](C(C)C)NC(=O)[C@H](CCCCN)N(C)C(=O)[C@@H](Cc1ccccc1)NC(=O)[C@H](CC(C)C)NC(=O)[C@H](CCCCN)NC(=O)[C@H](C(C)C)NC2=O
IC50 / µM: 3
//
smi: CC(C)C[C@@H]1NC(=O)[C@H](CCCN)NC(=O)[C@H](C)NC(=O)C2=CC3=C4CCCC4=C4C=C(S[C@]4(C)[C@@]3(C)S2)C(=O)[C@H]2CCCN2C(=O)[C@H](C)NC(=O)[C@H](CCCN)NC(=O)[C@H](C(C)C)NC(=O)[C@@H]2CCCN2C(=O)[C@@H](Cc2ccccc2)NC1=O
IC50 / µM: 106
//
smi: C[C@]12SC3=CC1=C1CCCC1=C1C=C(S[C@@]12C)C(=O)[C@H]1CCCN1C(=O)[C@H](CCCCN)NC(=O)[C@H](C12CC4CC(CC(C4)C1)C2)NC(=O)[C@H](CCCN)NC(=O)[C@@H]1CCCN1C(=O)[C@@H](Cc1ccccc1)NC(=O)[C@H](CCCN)NC(=O)[C@H](C12CC4CC(CC(C4)C1)C2)NC(=O)[C@H](CCCN)NC3=O
IC50 / µM: 11

---

protocol_description: Selective ratio of HC50 for human RBC to IC50 for human HeLa cells
Type: toxicity
measurement_setup: human red blood cells versus HeLa cells
measured_endpoint: selectivity ratio

smi: Cc1sc2cc1C1=C(CCC1)c1cc(sc1C)C(=O)[C@H]1CCCN1C(=O)[C@H](C(C)C)NC(=O)[C@H](CCCCN)NC(=O)[C@H](CC(C)C)NC(=O)[C@H](CCCCN)NC(=O)[C@@H]1CCCN1C(=O)[C@@H](Cc1ccccc1)NC(=O)[C@H](CCCCN)NC(=O)[C@H](C(C)C)NC(=O)[C@H](CCCCN)NC(=O)[C@H](CC(C)C)NC2=O
recorded_measurement: 2
//
smi: CC(C)C[C@@H]1NC(=O)[C@H](CCCCN)NC(=O)[C@H](C(C)C)NC(=O)C2=CC3=C4CCCC4=C4C=C(S[C@]4(C)[C@@]3(C)S2)C(=O)[C@H]2CCCN2C(=O)[C@H](CC(C)C)NC(=O)[C@H](CCCCN)NC(=O)[C@H](C(C)C)NC(=O)[C@H](CCCCN)NC(=O)[C@H](CC(C)C)NC(=O)[C@@H]2CCCN2C(=O)[C@@H](Cc2ccccc2)NC(=O)[C@H](C(C)C)NC(=O)[C@H](CCCCN)NC1=O
recorded_measurement: 1.3
//
smi: CC(C)[C@@H]1NC(=O)C2=CC3=C4CCCC4=C4C=C(S[C@]4(C)[C@@]3(C)S2)C(=O)[C@H]2CCCN2C(=O)[C@H](Cc2ccc(O)cc2)NC(=O)[C@H](CCCN)NC(=O)[C@H](C(C)C)NC(=O)[C@@H]2CCCN2C(=O)[C@@H](Cc2ccccc2)NC(=O)[C@H](Cc2ccc(O)cc2)NC(=O)[C@H](CCCN)NC1=O
recorded_measurement: 0.1
//
smi: CC(C)C[C@@H]1NC(=O)[C@H](CCCCN)NC(=O)[C@H](C(C)C)NC(=O)C2=CC3=C4CCCC4=C4C=C(S[C@]4(C)[C@@]3(C)S2)C(=O)[C@H]2CCCN2C(=O)[C@H](CC(C)C)NC(=O)[C@H](CCCCN)NC(=O)[C@H](C(C)C)NC(=O)[C@H](CCCCN)NC(=O)[C@H](CC(C)C)NC(=O)[C@H](CCCCN)N(C)C(=O)[C@@H](Cc2ccccc2)NC(=O)[C@H](C(C)C)NC(=O)[C@H](CCCCN)NC1=O
recorded_measurement: 0.5
//
smi: CC(C)[C@@H]1NC(=O)C2=CC3=C4CCCC4=C4C=C(S[C@]4(C)[C@@]3(C)S2)C(=O)[C@H]2CCCN2C(=O)[C@H](C(C)C)NC(=O)[C@H](CCCN)NC(=O)[C@H]([C@H](O)C(C)C)NC(=O)[C@@H]2CCCN2C(=O)[C@@H](Cc2ccccc2)NC(=O)[C@H](C(C)C)NC(=O)[C@H](CCCN)NC1=O
recorded_measurement: 1.3
//
smi: Cc1sc2cc1C1=C(CCC1)c1cc(sc1C)C(=O)[C@H]1CCCN1C(=O)[C@H](C(C)C)NC(=O)[C@H](CCCCN)NC(=O)[C@H](C(C)C)NC(=O)[C@H](CC(C)C)NC(=O)[C@@H](CCCCN)NC(=O)[C@@H]1CCCN1C(=O)[C@@H](Cc1ccccc1)NC(=O)[C@H](C(C)C)NC(=O)[C@H](CCCCN)NC(=O)[C@H](CC(C)C)NC(=O)[C@H](CCCCN)NC(=O)[C@H](C(C)C)NC2=O
recorded_measurement: 0.3

---

Test system: Bacillus subtilis
protocol_description: Antimicrobial activity against Bacillus subtilis DSM 347 after 22 hrs by resazurin dye based spectrophotometry
Type: functional
measurement_setup: DSM 347, 22 h
MIC reference

smi: CC(C)C(=O)NCC[C@@H]1NC(=O)C2=CC3=C4CCCC4=C4C=C(S[C@]4(C)[C@@]3(C)S2)C(=O)[C@H]2CCCN2C(=O)[C@H](C(C)C)NC(=O)[C@H](CCCN)NC(=O)[C@H](C(C)C)NC(=O)[C@@H]2CCCN2C(=O)[C@@H](Cc2ccccc2)NC(=O)[C@H](C(C)C)NC(=O)[C@H](CCCN)NC1=O
MIC: 48 µM
//
smi: CC(C)C[C@@H]1NC(=O)[C@H](CCCCN)NC(=O)[C@H](C(C)C)NC(=O)C2=CC3=C4CCCC4=C4C=C(S[C@]4(C)[C@@]3(C)S2)C(=O)[C@H]2CCCN2C(=O)[C@H](CC(C)C)NC(=O)[C@H](CCCCN)NC(=O)[C@H](C(C)C)NC(=O)[C@H](CCCCN)NC(=O)[C@H](CC(C)C)NC(=O)[C@@H]2CCCN2C(=O)[C@@H](Cc2ccccc2)NC(=O)[C@H](C(C)C)NC(=O)[C@H](CCCCN)NC1=O
MIC: 1 µM
//
smi: CC(C)C[C@@H]1NC(=O)[C@H](CCCCN)NC(=O)[C@H](C(C)C)NC(=O)C2=CC3=C4CCCC4=C4C=C(S[C@]4(C)[C@@]3(C)S2)C(=O)[C@H]2CCCN2C(=O)[C@H](CC(C)C)NC(=O)[C@H](CCCCN)NC(=O)[C@H](C(C)C)NC(=O)[C@H](CCCCN)N(C)C(=O)[C@@H](Cc2ccccc2)NC1=O
MIC: 3 µM
//
smi: CC(C)C[C@@H]1NC(=O)[C@H](CCCCN)NC(=O)[C@H](C(C)C)NC(=O)[C@@H]2CCCN2C(=O)[C@@H](Cc2ccccc2)NC(=O)[C@H](CC(C)C)NC(=O)[C@H](CCCCN)NC(=O)[C@H](C(C)C)NC(=O)[C@H](CCCCN)NC(=O)C2=CC3=C4CCCC4=C4C=C(S[C@]4(C)[C@@]3(C)S2)C(=O)[C@H]2CCCN2C(=O)[C@H](CCCCN)NC1=O
MIC: 21 µM
//
smi: CC(C)C[C@@H]1NC(=O)[C@H](CCCCN)NC(=O)[C@H](C(C)C)NC(=O)C2=CC3=C4CCCC4=C4C=C(S[C@]4(C)[C@@]3(C)S2)C(=O)[C@H]2CCCN2C(=O)[C@H](CC(C)C)NC(=O)[C@H](CCCCN)NC(=O)[C@H](C(C)C)NC(=O)[C@H](CCCCN)NC(=O)[C@H](CC(C)C)NC(=O)[C@H](CCCCN)N(C)C(=O)[C@@H](Cc2ccccc2)NC(=O)[C@H](C(C)C)NC(=O)[C@H](CCCCN)NC1=O
MIC: 1 µM
//
smi: CCCCN1C(=O)[C@@H](Cc2ccccc2)NC(=O)[C@H](CC(C)C)NC(=O)[C@H](CCCN)NC(=O)[C@H]([C@@H](C)CC)NC(=O)C2=CC3=C4CCCC4=C4C=C(S[C@]4(C)[C@@]3(C)S2)C(=O)[C@H]2CCCN2C(=O)[C@H](CC(C)C)NC(=O)[C@H](CCCN)NC(=O)[C@H]([C@@H](C)CC)NC(=O)[C@@H]1CC(C)C
MIC: 1 µM
//
smi: Cc1sc2cc1C1=C(CCC1)c1cc(sc1C)C(=O)[C@H]1CCCN1C(=O)[C@H](C(C)C)NC(=O)[C@H](CCCN)N(C)C(=O)[C@H](C(C)C)NC(=O)[C@@H]1CCCN1C(=O)[C@@H](Cc1ccccc1)N(C)C(=O)[C@H](C(C)C)NC(=O)[C@H](CCCN)NC(=O)[C@H](C(C)C)NC2=O
MIC: 2 µM
//
smi: Cc1sc2cc1C1=C(CCC1)c1cc(sc1C)C(=O)[C@H]1CCCN1C(=O)[C@H](CCCCN)NC(=O)[C@H](CC(C)C)NC(=O)[C@H](CCCCN)NC(=O)[C@H](C(C)C)NC(=O)[C@@H]1CCCN1C(=O)[C@@H](Cc1ccccc1)NC(=O)[C@H](CC(C)C)NC(=O)[C@H](CCCCN)NC(=O)[C@H](C(C)C)NC(=O)[C@H](CCCCN)NC2=O
MIC: 1 µM
//
smi: CC[C@H](C)[C@@H]1NC(=O)c2cc(c(C)s2)C2=C(CCC2)c2cc(sc2C)C(=O)[C@H]2CCCN2C(=O)[C@H]([C@@H](C)CC)NC(=O)[C@H](CCCN)NC(=O)[C@H](CC(C)C)NC(=O)[C@H](CC(C)C)N(C)C(=O)[C@@H](Cc2ccccc2)NC(=O)[C@H]([C@@H](C)CC)NC(=O)[C@H](CCCN)NC1=O
MIC: 2 µM
//
smi: Cc1sc2cc1C1=C(CCC1)c1cc(sc1C)C(=O)[C@H]1CCCN1C(=O)[C@H](C(C)C)NC(=O)[C@H](CCCCN)NC(=O)[C@H](C(C)C)NC(=O)[C@H](CC(C)C)NC(=O)[C@@H](CCCCN)NC(=O)[C@@H]1CCCN1C(=O)[C@@H](Cc1ccccc1)NC(=O)[C@H](C(C)C)NC(=O)[C@H](CCCCN)NC(=O)[C@H](CC(C)C)NC(=O)[C@H](CCCCN)NC(=O)[C@H](C(C)C)NC2=O
MIC: 1 µM
//
smi: CC(C)C[C@@H]1NC(=O)[C@H](CCCNC(=N)N)NC(=O)[C@H](C(C)C)NC(=O)C2=CC3=C4CCCC4=C4C=C(S[C@]4(C)[C@@]3(C)S2)C(=O)[C@H]2CCCN2C(=O)[C@H](CC(C)C)NC(=O)[C@H](CCCNC(=N)N)NC(=O)[C@H](C(C)C)NC(=O)[C@@H]2CCCN2C(=O)[C@@H](Cc2ccccc2)NC1=O
MIC: 6 µM
//
smi: Cc1sc2cc1C1=C(CCC1)c1cc(sc1C)C(=O)[C@H]1CCCN1C(=O)[C@H](C(C)C)NC(=O)[C@H](CCCN)NC(=O)[C@H](C(C)C)NC(=O)[C@@H]1CCCN1C(=O)[C@@H](Cc1ccccc1)NC(=O)[C@H](C(C)C)NC(=O)[C@H](CCCN)NC(=O)[C@H]([C@H](O)C(C)C)NC2=O
MIC: 2 µM

These data points were gathered from ChEMBL document CHEMBL4257585.
